# Tested on: NCI/ADR-RES
# procedure_summary: NCI tumour cell line growth inhibition, 48 h
Activity calls are given as the source filed them. No stated cut-off is given here; in the data, active = GI50 up to about 1.1 µM and inactive = higher.
Just give me one of these, please: 1.0 (active), 0.0 (inactive)

Record lookup: outcome of this test for Nc1nc2c(ncn2CC2CCC(CO)C2)c(=O)[nH]1 (stereo unspecified) ? 0.0

Tell me the recorded outcome of this test for C/C(=N\N=C(/S)N1CC2CCC(CC2)C1)c1ccncn1 . 1.0

Entry CC1(C)OP(=O)(c2ccccc2)C=C1Br (stereo unspecified) : call = ? 0.0

// return assay outcome for COC(=O)C1=C(C(=O)OC)C2OC1c1cc3ccccc3cc12 0.0

What did the test return for O=c1nc(Oc2c(F)c(F)c(F)c(F)c2F)ccn1C1OC(CO)C(O)C1O (stereo unspecified) ? 0.0

Identify the outcome logged in this assay for the compound shown: O=c1n(-c2ccccc2)c(=O)n2c(-c3ccccc3)c(-c3ccccc3)n12 0.0

Fill in: this test's call for Cc1[nH]nc(C(=O)N/N=C/c2cccs2)c1/N=N\N(C)C is ___ 0.0

What was the test verdict on NS(=O)(=O)c1nnc(NC(=O)N(c2ccccc2)c2ccccc2)s1 ? 0.0

GET /call?item= CCOC(=O)C1=C(C)N(c2ccc(Cl)cc2)C2(O)C=CC(O)=C3C(=O)c4ccccc4C(=O)C312 (stereo unspecified) returns the recorded outcome of this test. 0.0

Test call for this compound, please: CCCCCCCCCCCCCCCCOP(=O)(O)OCC(NC(C)=O)C(=O)O (stereo unspecified) 0.0

What did the test return for Oc1ccc(C[C@@H]2CN[C@H](Cc3ccc(O)c(Br)c3)CN2)cc1 ? 0.0

###

# System: COLO 205
# procedure_summary: NCI tumour cell line growth inhibition, 48 h
Calls of active or inactive are those of the source. Cut-off read from the data, not from the text of the source: active = GI50 up to about 1.1 µM and inactive = higher.
Consider the following compounds; for each one, report its GI50.

Tell me the measured GI50 of COC(=O)C1=C(C)NC(CF)=C(C(=O)OC)C1c1cccc2c(=O)c3ccccc3oc12 (stereo not given) , please. 4.39 µM (inactive)

Item under review: COC(=O)CCC(=O)CC(=O)C(=O)Nc1ccc(F)cc1 . Reported GI50? > 100 µM (inactive)

# GI50 lookup, item CCOC(=O)CN1CC(C2=C(O)CN(CC(=O)OCC)C2=O)=CC1=O > 100 µM (inactive)

I'd like to know its GI50. The compound in question is CN1CN(c2ccccc2)C2(CCN(C(=O)OC(C)(C)C)CC2)C1=O > 100 µM (inactive)

Give its GI50 value. Item: C/C=C/C(O)P1(=O)N(Cc2ccccc2)[C@@H]2CCCC[C@H]2N1Cc1ccccc1 (stereo not given in full) > 25 µM (inactive)

###

# System: K562
# procedure_summary: NCI tumour cell line growth inhibition, 48 h
Calls of active or inactive are those of the source. Rule as the data show it: active = GI50 up to about 1.1 µM and inactive = higher.
Hi! Could you answer with just one of these? 1 for active, 0 for inactive

Fill in: this test's call for Cc1cc(=O)oc2cc(O)ccc12 [HYMECROMONE] is ___ 0

Hello, I am checking results. What call was entered for CCc1ccccc1NC(=O)/C=C/c1ccccc1 ? 0

State the result this test recorded for CCOC(=O)Nc1ccc(S(=O)(=O)Nn2cnnc2)cc1 . 0

How did this test come out for C=CCC1C(=O)CC2(C)C(CC=C)C(=O)CC12C (stereo not given) ? 0

Dear colleague, could you share the recorded outcome for CCCCn1cnc2c(c(CC#N)nn2-c2ccccc2)c1=N when you have a moment? 0

// outcome(item) with item = CC(C)(C)[Si](C)(C)OCCCCC1CC2(S(=O)(=O)C3=CC=C=C=C3)ON1CC2S(=O)(=O)c1ccccc1 (stereo not given) 0

Assay outcome for O=[N+]([O-])c1ccccc1OCCOc1ccccc1[N+](=O)[O-] : what was it? 0

So what was the verdict on COc1ccc2ccnc(Cc3ccc(OCc4ccccc4)c(OC)c3)c2c1 in this test? 0

What did this assay record as the result for O=C(c1ccccc1)c1ccc2cccc(OC3OC(CO)C(O)C(O)C3O)c2n1 (stereo not given) ? 0

Assay result, entry NC1C/C(=N\O)c2c(I)sc(I)c21 (stereo not given) — outcome? 0

What call does the record list for COC(OC)c1cccnc1C ? 0

Recorded test call requested for O=NN(CCCl)C(=O)N[C@H]1CC[C@@H](CC(=O)O)CC1 0

For this compound, state the assay outcome: O=C(OCCN=c1c2ccccc2ccc2ccccc12)c1ccccc1 0

Per the assay record, what outcome was assigned to COc1cccc(C2C3=C(COC3=O)Oc3cc4c(cc32)OCO4)c1 (stereo not given) ? 1

Please share the test call associated with c1ccc(N2N=C3N(c4ccccc4)C2N3c2ccccc2)cc1 . 0
